Please respond with reported concentration 9-Z for every item in the list.
Assay: Stability of pure lycopene isomers in n-hexane during storage at room temperature
Type: physicochemical
Settings: n-hexane, room temperature, absence of light, 12 days

Below, 3 compounds whose answers are already recorded.
CC(C)=CCC/C(C)=C/C=C/C(C)=C\C=C\C(C)=C\C=C\C=C(C)\C=C\C=C(C)\C=C\C=C(/C)CCC=C(C)C [9-Z lycopene]: 66.5 % of total isomers
CC(C)=CCC/C(C)=C/C=C/C(C)=C/C=C/C(C)=C\C=C\C=C(C)\C=C\C=C(C)\C=C\C=C(/C)CCC=C(C)C [13-Z lycopene]: 2.6 % of total isomers
CC(C)=CCC\C(C)=C/C=C/C(C)=C/C=C/C(C)=C/C=C/C=C(C)/C=C/C=C(C)/C=C/C=C(\C)CCC=C(C)C [5-Z lycopene]: 0.7 % of total isomers

Measured concentration 9-Z, CC(C)=CCC/C(C)=C/C=C/C(C)=C/C=C/C(C)=C/C=C/C=C(C)/C=C/C=C(C)/C=C/C=C(\C)CCC=C(C)C [all-E lycopene] : 2.0 % of total isomers

###

Assay: Stability of pure lycopene isomers in n-hexane during storage at room temperature
Type: physicochemical
Conditions: n-hexane, room temperature, absence of light, 2 days
MEASUREMENT_LABEL: concentration 5-Z

Below, 3 compounds whose answers are already recorded.
CC(C)=CCC/C(C)=C/C=C/C(C)=C/C=C/C(C)=C/C=C/C=C(C)/C=C/C=C(C)/C=C/C=C(\C)CCC=C(C)C [all-E lycopene]: 2.6 % of total isomers
CC(C)=CCC/C(C)=C/C=C/C(C)=C\C=C\C(C)=C\C=C\C=C(C)\C=C\C=C(C)\C=C\C=C(/C)CCC=C(C)C [9-Z lycopene]: 11.6 % of total isomers
CC(C)=CCC/C(C)=C/C=C/C(C)=C/C=C/C(C)=C\C=C\C=C(C)\C=C\C=C(C)\C=C\C=C(/C)CCC=C(C)C [13-Z lycopene]: 0 % of total isomers

Attention now turns to another entry.
Measured concentration 5-Z, CC(C)=CCC\C(C)=C/C=C/C(C)=C/C=C/C(C)=C/C=C/C=C(C)/C=C/C=C(C)/C=C/C=C(\C)CCC=C(C)C [5-Z lycopene] : 76.9 % of total isomers

###

Assay: Stability of pure lycopene isomers in n-hexane during storage at room temperature
Type: physicochemical
Conditions: n-hexane, room temperature, absence of light, 12 days
MEASUREMENT_LABEL: concentration 13-Z

CC(C)=CCC/C(C)=C/C=C/C(C)=C/C=C/C(C)=C\C=C\C=C(C)\C=C\C=C(C)\C=C\C=C(/C)CCC=C(C)C: 20.8 % of total isomers
CC(C)=CCC\C(C)=C/C=C/C(C)=C/C=C/C(C)=C/C=C/C=C(C)/C=C/C=C(C)/C=C/C=C(\C)CCC=C(C)C: 1.7 % of total isomers
CC(C)=CCC/C(C)=C/C=C/C(C)=C\C=C\C(C)=C\C=C\C=C(C)\C=C\C=C(C)\C=C\C=C(/C)CCC=C(C)C: 8.2 % of total isomers

Measured concentration 13-Z, CC(C)=CCC/C(C)=C/C=C/C(C)=C/C=C/C(C)=C/C=C/C=C(C)/C=C/C=C(C)/C=C/C=C(\C)CCC=C(C)C : 18.2 % of total isomers

###

Test: Stability of pure lycopene isomers in n-hexane during storage at room temperature
Type: physicochemical
Details: n-hexane, room temperature, absence of light, 5 days
Experimental: Pure 5-Z, 9-Z, 13-Z and all-E lycopene were isolated from isomerised tomato oleoresin (submitted to 1 hour heating), by collecting the fractions containing the corresponding peaks after HPLC separation (see below the experimental conditions). […] Amount of total lycopene was determined by reverse phase HPLC on a C18 precolumn (ODS Hypersil, 5 μm, 20×4 mm; Hewlett Packard, Geneva, Switzerland) and a C18 column (Nova pak, 3.9 μm i.d.×300 mm length, Millipore, Volketswil, Switzerland). […]
Please respond with reported concentration all E for every item in the list.

Below, 2 compounds whose answers are already recorded.
CC(C)=CCC/C(C)=C/C=C/C(C)=C\C=C\C(C)=C\C=C\C=C(C)\C=C\C=C(C)\C=C\C=C(/C)CCC=C(C)C: 5.6 % of total isomers
CC(C)=CCC\C(C)=C/C=C/C(C)=C/C=C/C(C)=C/C=C/C=C(C)/C=C/C=C(C)/C=C/C=C(\C)CCC=C(C)C: 3.9 % of total isomers

Return reported concentration all E values for all items listed beneath this line.
1. CC(C)=CCC/C(C)=C/C=C/C(C)=C/C=C/C(C)=C/C=C/C=C(C)/C=C/C=C(C)/C=C/C=C(\C)CCC=C(C)C
2. CC(C)=CCC/C(C)=C/C=C/C(C)=C/C=C/C(C)=C\C=C\C=C(C)\C=C\C=C(C)\C=C\C=C(/C)CCC=C(C)C

Response line:
1: 69.3 % of total isomers; 2: 68.9 % of total isomers
